# System: UO-31
# EXPERIMENT: NCI tumour cell line growth inhibition, 48 h
Activity calls are given as the source filed them. Rule as the data show it: active = GI50 up to about 1.1 µM and inactive = higher.
PROPERTY_LABEL: GI50

Example entries and their recorded answers appear below.
MOLECULE: Cc1ccc(N/C(=C(/C(Cl)=C(Cl)Cl)[N+](=O)[O-])n2nnc3ccccc32)cc1
GI50: 16.6 µM (inactive)
--
MOLECULE: CC1=C[C@@H]2[C@@H](CC(CO)=C[C@H]3[C@@H]4C(C)(C)[C@]4(OCC(C)C)[C@H](OCC(C)C)[C@@H](C)[C@]23O)C1=O
GI50: 2.22 µM (inactive)
--
MOLECULE: CCOC(=O)C1(NC(=O)OC(C)(C)C)CCc2[nH]oc(=O)c2C1 (centres undefined)
GI50: > 100 µM (inactive)
--
MOLECULE: Nc1ccc2n[se]nc2c1
GI50: > 100 µM (inactive)
--
MOLECULE: O=C(O)c1ccccc1CN1CCCC(C(=O)O)C1 (centres undefined)
GI50: > 100 µM (inactive)
--
MOLECULE: Cc1ccccc1Cn1nc2ccccc2cc1=O
GI50: > 100 µM (inactive)
--
MOLECULE: Cc1cnoc1NS(=O)(=O)c1ccc(Nc2nnc(/C=C/c3c(O)ccc4ccccc34)c(=O)n2N)cc1
GI50: 28.7 µM (inactive)
--
MOLECULE: COc1ccc(C2[C@@H](Cl)C(=O)N2c2ccc(OC)cc2)cc1 (some centres undefined)
GI50: 56.8 µM (inactive)

Then there is this molecule:
Value of measured GI50 for the entry CC(=O)O[C@H]1C(=O)[C@@]2(C)[C@H]([C@H](OC(=O)c3ccoc3)[C@]3(O)C[C@H](OC(=O)[C@H](O)[C@@H](NC(=O)c4ccccc4)c4ccccc4)C(C)=C1C3(C)C)[C@]1(OC(C)=O)CO[C@@H]1C[C@@H]2O : > 8.91 µM (inactive)
